# Test system: dopamine (DA) in the striatum of a MPTP-treated mouse
# Assay overview: Combined administration with Levodopa group: dopamine in the striatum of MPTP-treated mouse (HPLC)
# Type: in vivo
# Condition set: compound 1 mg/kg PO co-administered with Levodopa group (Levodopa 50 mg/kg + Benzerazide 25 mg/kg IP); 3 hr after Levodopa
Catalogue of Concentration of dopamine compared to a control group %, 3 hr values
Form entry: value (%) — number only.

Recorded results for 8 compounds are shown here.
| Substance smiles | Obs value |
| --- | --- |
| NC(=O)OCc1cc(-c2ccc(NCc3ccc(F)c(F)c3)cc2)no1 | 144.3 |
| Fc1cccc(COc2ccc(-c3cc(Cn4ccnc4)on3)cc2)c1 | 65.5 |
| NC(=O)OCc1cc(-c2ccc(OCc3ccccc3)cc2)ns1 | 39.3 |
| NC(=O)OCc1cc(-c2ccc(OCc3ccccc3)c(Br)c2)no1 | 59.8 |
| NC(=O)NCc1cc(-c2ccc(OCc3ccccc3)cc2)no1 | 77.0 |
| NC(=O)OCc1cc(-c2ccc(NCc3ccccc3)cc2)no1 | 74.7 |
| NC(=O)CNCc1cc(-c2ccc(OCc3ccccc3)cc2)no1 | 100.1 |
| NC(=O)OCc1cc(-c2ccc(NCc3c(F)cccc3F)cc2)no1 | 115.2 |

Prompt: For NC(=O)OCc1cc(-c2ccc(OCc3c(Cl)cncc3Cl)cc2)no1 , what is its reported Concentration of dopamine compared to a control group %, 3 hr?
Completion: 200.4

Prompt: Item under review: NCCCNC(=O)OCc1cc(-c2ccc(OCc3ccccc3)cc2)no1 . Reported Concentration of dopamine compared to a control group %, 3 hr?
Completion: 77.0

Prompt: State the recorded Concentration of dopamine compared to a control group %, 3 hr for this entry: NC(=O)OCc1nc(-c2ccc(OCc3ccccc3)cc2)no1
Completion: 43.6

----------
List of response vs control in vivo at 10 mg/kg values.
# System: dopamine (DA) in the striata of MPTP-treated mice
# Assay overview: Levels of dopamine in the striata of MPTP-treated mice (HPLC)
# Assay type: in vivo
# Condition set: Mus musculus, po, 168 h, 10 mpk, 7 days after MPTP, read-out: Levels of dopamine (DA) in the striata, compared to a control group %
The figure you give is taken to be in %; do not add the unit.

A selection of reference data follows.
| Substance smiles | Result unit | response vs control in vivo at 10 mg/kg |
| --- | --- | --- |
| Fc1cccc(F)c1COc1ccc(-c2cc(Cn3ccnc3)on2)cc1 | % | 46.1 |
| NC(=O)OCc1cc(-c2ccc(OCc3ccccc3)c(Br)c2)no1 | % | 112 |
| NC(=O)OCc1cc(-c2ccc(OCc3ccc(Cl)s3)cc2)no1 | % | 99.1 |
| NC(=O)OCc1cc(-c2ccc(OCc3c(Cl)cncc3Cl)cc2)no1 | % | 100 |
| NC(=O)OCc1cc(-c2ccc(OCc3ccncc3)cc2)no1 | % | 80.7 |

Prompt: State the recorded response vs control in vivo at 10 mg/kg for this entry: Cc1cn(Cc2cc(-c3ccc(OCc4ccccc4)cc3)no2)cn1
Completion: 51.2

----------
# Measured on: Monoamineoxidase B type human-derived enzyme (Homo sapiens)
# Sequence (P27338 whole entry): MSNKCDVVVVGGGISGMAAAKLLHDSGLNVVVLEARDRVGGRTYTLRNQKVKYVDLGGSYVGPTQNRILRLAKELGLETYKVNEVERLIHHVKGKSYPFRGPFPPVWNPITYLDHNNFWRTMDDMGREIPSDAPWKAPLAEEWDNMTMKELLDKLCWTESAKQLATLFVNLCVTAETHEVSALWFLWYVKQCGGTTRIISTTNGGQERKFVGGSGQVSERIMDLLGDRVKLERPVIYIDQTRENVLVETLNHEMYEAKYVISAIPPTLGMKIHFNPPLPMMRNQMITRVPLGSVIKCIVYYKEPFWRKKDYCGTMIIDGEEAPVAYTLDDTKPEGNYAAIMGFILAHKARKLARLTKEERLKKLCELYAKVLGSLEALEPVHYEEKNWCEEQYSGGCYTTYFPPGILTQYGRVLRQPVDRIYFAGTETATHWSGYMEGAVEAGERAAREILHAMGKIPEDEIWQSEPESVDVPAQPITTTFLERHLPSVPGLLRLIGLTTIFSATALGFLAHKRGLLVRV
# Assay overview: Inhibitory effects on the activity of MAO-B (Amplex Red fluorescence, benzylamine substrate)
# Assay type: biochemical
# Condition set: read-out: Inhibitory effects (%) on the activity of MAO-B
Measured quantity: inhibition at 0.01 µM (%)
Provide the reading as a plain figure in %.

Solved cases (5 shown):
| Substance smiles | Obs value |
| --- | --- |
| NC(=O)OCc1cc(-c2ccc(OCc3cccnc3)cc2)no1 | 87.3 |
| CCCCCCOc1ccc(-c2cc(COC(N)=O)on2)cc1 | 87.6 |
| NC(=O)OCc1cc(-c2ccc(NCc3cccs3)cc2)no1 | 80.8 |
| CCOC(=O)COc1ccc(-c2cc(COC(N)=O)on2)cc1 | 41.2 |
| NC(=O)OCc1cc(-c2ccc(OCc3ccccc3)cc2)ns1 | 95.2 |

Prompt: Look up inhibition at 0.01 µM: NC(=O)OCCCOc1ccc(-c2cc(COC(N)=O)on2)cc1
Completion: 26.6

Prompt: Consider the compound NC(=O)OCc1cc(-c2ccc(OCc3ccccn3)cc2)no1 and give its measured inhibition at 0.01 µM.
Completion: 89.9

Prompt: Need inhibition at 0.01 µM of NC(=O)OCc1cc(-c2ccc(OCSC(F)(F)F)cc2)no1 , thanks.
Completion: 88.1

Prompt: Which inhibition at 0.01 µM value belongs to NC(=O)OCc1nc(-c2ccc(OCc3ccccc3)cc2)no1 ?
Completion: 95

Prompt: Look up inhibition at 0.01 µM for this compound: NC(=O)OCc1cc(-c2ccc(OCCCC(F)(F)F)cc2)no1
Completion: 97.4
